IC50 values, listed per item
Target: Neuropeptide Y receptor type 4 (Homo sapiens, UniProt P50391)
Sequence (P50391 whole entry): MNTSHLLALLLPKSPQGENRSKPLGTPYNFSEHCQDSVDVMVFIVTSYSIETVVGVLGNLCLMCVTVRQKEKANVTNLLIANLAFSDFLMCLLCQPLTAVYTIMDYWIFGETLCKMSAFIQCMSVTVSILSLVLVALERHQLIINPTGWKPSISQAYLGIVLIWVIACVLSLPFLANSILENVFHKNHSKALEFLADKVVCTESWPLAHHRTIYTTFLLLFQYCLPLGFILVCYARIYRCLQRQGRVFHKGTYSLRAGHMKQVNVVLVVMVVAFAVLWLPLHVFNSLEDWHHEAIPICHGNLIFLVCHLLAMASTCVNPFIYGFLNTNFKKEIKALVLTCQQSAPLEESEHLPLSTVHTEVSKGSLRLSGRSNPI
Experiment: Displacement of [Lys2(sCy5),Arg4]-BVD-15 from C-terminal GFP-tagged neuropeptide Y4R (unknown origin) expressed in human 293TR cells measured after 30 mins by fluorescence analysis
Assay type: cell-based
Conditions: read-out: pIC50 (converted)

LINE_NOTATION	IC50 (nM)
CCN(CC)c1ccc2c(-c3ccccc3C(=O)N3CCN(C(=O)CCC(=O)N[C@@H](C/C=C\C[C@H](N)C(=O)N[C@@H](Cc4ccc(O)cc4)C(=O)N[C@@H](CCCNC(=N)N)C(=O)N[C@@H](CC(C)C)C(=O)N[C@@H](CCCNC(=N)N)C(=O)N[C@@H](Cc4ccc(O)cc4)C(N)=O)C(=O)N[C@@H](Cc4ccc(O)cc4)C(=O)N[C@@H](CCCNC(=N)N)C(=O)N[C@@H](CC(C)C)C(=O)N[C@@H](CCCNC(=N)N)C(=O)N[C@@H](Cc4ccc(O)cc4)C(N)=O)CC3)c3ccc(=[N+](CC)CC)cc-3oc2c1	69.2
COC(=O)[C@H](Cc1ccc(O)cc1)NC(=O)[C@H](CCCNC(=N)N)NC(=O)[C@H](CC(C)C)NC(=O)[C@H](CCCNC(=N)N)NC(=O)[C@H](Cc1ccc(O)cc1)NC(=O)[C@@H](N)CCCC[C@H](N)C(=O)N[C@@H](Cc1ccc(O)cc1)C(=O)N[C@@H](CCCNC(=N)N)C(=O)N[C@@H](CC(C)C)C(=O)N[C@@H](CCCNC(=N)N)C(=O)N[C@@H](Cc1ccc(O)cc1)C(N)=O	93.3
COC(=O)[C@H](Cc1ccc(O)cc1)NC(=O)[C@H](CCCNC(=N)N)NC(=O)[C@H](CC(C)C)NC(=O)[C@H](CCCNC(=N)N)NC(=O)[C@H](Cc1ccc(O)cc1)NC(=O)[C@@H](N)CCCC[C@H](N)C(=O)N[C@@H](Cc1ccc(O)cc1)C(=O)N[C@@H](CCCNC(=N)N)C(=O)N[C@@H](CC(C)C)C(=O)N[C@@H](CCCNC(=N)N)C(=O)N[C@@H](Cc1ccc(O)cc1)C(=O)OC	617

====

Target: Neuropeptide Y receptor type 4 (Homo sapiens, UniProt P50391)
Assay: Agonist activity at GFP-tagged neuropeptide Y4R (unknown origin) expressed in HEK293T cells assessed as beta-arrestin2 recruitment measured after 60 mins by H33342 staining-based imaging method
Assay type: cell-based
Details: read-out: pEC50 (converted)
EC50 values, listed per item

LINE_NOTATION	TESTED_TARGET	EC50 (nM)
CC(C)C[C@H](NC(=O)[C@H](CCCNC(=N)N)NC(=O)[C@H](Cc1ccc(O)cc1)NC(=O)[C@H](N)C/C=C\C[C@@H](N)C(=O)N[C@@H](Cc1ccc(O)cc1)C(=O)N[C@@H](CCCNC(=N)N)C(=O)N[C@@H](CC(C)C)C(=O)N[C@@H](CCCNC(=N)N)C(=O)N[C@@H](Cc1ccc(O)cc1)C(N)=O)C(=O)N[C@@H](CCCNC(=N)N)C(=O)N[C@@H](Cc1ccc(O)cc1)C(N)=O	Neuropeptide Y receptor type 4 (Homo sapiens, UniProt P50391)	38
CCN1\C(=C/C=C/C=C/C2=[N+](CCCCCC(=O)N[C@@H](CCCC[C@H](N)C(=O)N[C@@H](Cc3ccc(O)cc3)C(=O)N[C@@H](CCCNC(=N)N)C(=O)N[C@@H](CC(C)C)C(=O)N[C@@H](CCCNC(=N)N)C(=O)N[C@@H](Cc3ccc(O)cc3)C(N)=O)C(=O)N[C@@H](Cc3ccc(O)cc3)C(=O)N[C@@H](CCCNC(=N)N)C(=O)N[C@@H](CC(C)C)C(=O)N[C@@H](CCCNC(=N)N)C(=O)N[C@@H](Cc3ccc(O)cc3)C(N)=O)c3ccc(S(=O)(=O)O)cc3C2(C)C)C(C)(C)c2cc(S(=O)(=O)[O-])ccc21	Neuropeptide Y receptor type 4 (Homo sapiens, UniProt P50391)	95.5
CC(C)C[C@H](NC(=O)[C@H](CCCNC(=N)N)NC(=O)[C@H](Cc1ccc(O)cc1)NC(=O)[C@@H](N)C/C=C\C[C@H](N)C(=O)N[C@@H](Cc1ccc(O)cc1)C(=O)N[C@@H](CCCNC(=N)N)C(=O)N[C@@H](CC(C)C)C(=O)N[C@@H](CCCNC(=N)N)C(=O)N[C@@H](Cc1ccc(O)cc1)C(N)=O)C(=O)N[C@@H](CCCNC(=N)N)C(=O)N[C@@H](Cc1ccc(O)cc1)C(N)=O	Neuropeptide Y receptor type 4 (Homo sapiens, UniProt P50391)	30.2
CC(C)C[C@H](NC(=O)[C@H](CCCNC(=N)N)NC(=O)[C@H](Cc1ccc(O)cc1)NC(=O)[C@@H](N)CCCC[C@H](N)C(=O)N[C@@H](Cc1ccc(O)cc1)C(=O)N[C@@H](CCCNC(=N)N)C(=O)N[C@@H](CC(C)C)C(=O)N[C@@H](CCCNC(=N)N)C(=O)N[C@@H](Cc1ccc(O)cc1)C(N)=O)C(=O)N[C@@H](CCCNC(=N)N)C(=O)N[C@@H](Cc1ccc(O)cc1)C(N)=O	Neuropeptide Y receptor type 4 (Homo sapiens, UniProt P50391)	83.2
CCN(CC)c1ccc2c(-c3ccccc3C(=O)N3CCN(C(=O)CCC(=O)N[C@H](C/C=C\C[C@@H](N)C(=O)N[C@@H](Cc4ccc(O)cc4)C(=O)N[C@@H](CCCNC(=N)N)C(=O)N[C@@H](CC(C)C)C(=O)N[C@@H](CCCNC(=N)N)C(=O)N[C@@H](Cc4ccc(O)cc4)C(N)=O)C(=O)N[C@@H](Cc4ccc(O)cc4)C(=O)N[C@@H](CCCNC(=N)N)C(=O)N[C@@H](CC(C)C)C(=O)N[C@@H](CCCNC(=N)N)C(=O)N[C@@H](Cc4ccc(O)cc4)C(N)=O)CC3)c3ccc(=[N+](CC)CC)cc-3oc2c1	Neuropeptide Y receptor type 4 (Homo sapiens, UniProt P50391)	3.72
